# Target System: T1, CRF1R receptor (UniProt P34998 24-415, limits assumed)
# T1 sequence (looked up): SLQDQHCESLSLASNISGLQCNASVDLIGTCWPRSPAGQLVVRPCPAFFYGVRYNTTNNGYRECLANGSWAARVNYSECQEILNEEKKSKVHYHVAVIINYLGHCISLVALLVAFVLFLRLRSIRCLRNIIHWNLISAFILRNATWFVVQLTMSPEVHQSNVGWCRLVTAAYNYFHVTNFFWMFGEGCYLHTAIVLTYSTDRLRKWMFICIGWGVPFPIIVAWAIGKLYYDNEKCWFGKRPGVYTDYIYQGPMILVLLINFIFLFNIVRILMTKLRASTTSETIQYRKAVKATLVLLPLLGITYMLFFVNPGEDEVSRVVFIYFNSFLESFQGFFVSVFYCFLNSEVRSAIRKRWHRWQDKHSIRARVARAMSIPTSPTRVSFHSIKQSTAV
# Assay Name: cell-based or functional assay
*1 amine or outer side, *2 acyl side, *3 side chain or, on linkers, in order; H or OH if unused. Primed or numbered codes have the meaning given here. Where no end group is shown, it is not given here. Side-chain parts run from the residue outwards. [ ]: non-standard residue; d: D form. The star is where a group is joined. Thp′ = 4-amino-tetrahydro-2H-pyran-4-yl-acetic acid, O=C(CC1(N[*:1])CCOCC1)[*:2]; C18 diacid = O=C(O)CCCCCCCCCCCCCCCCC(=O)*; C16 diacid = O=C(O)CCCCCCCCCCCCCCC(=O)*; γGlu = O=C(O)[C@H](CCC(=O)[*:2])N[*:1]; C14 diacid = O=C(O)CCCCCCCCCCCCC(=O)*; AEEA = NCCOCCOCC(=O)O; Aib = CC(C)(N)C(=O)O
EC50 overview

// returns reported EC50 for input IVLSLD[dV]PIKLK([AEEA-AEEA-γGlu-C16 diacid])QILLKQERQKKQREQAEKNKQILEQV-NH2 [SEQ ID NO 148]
100 nM

Record: IVLSLD[dV]PIKLK([AEEA-AEEA-γGlu-γGlu-C16 diacid])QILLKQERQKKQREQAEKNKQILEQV-NH2 [SEQ ID NO 146]
100 nM

Record: Ac-IVLSLD[dV]PIKLK([γGlu-C16 diacid])KILLEQEKQKKQREQAETN[Thp′]QILAQV-NH2 [SEQ ID NO 58]
> 250 nM

Record: Ac-IVLSLD[dV]PIKLK([AEEA-AEEA-γGlu-C18 diacid])KILLEQEKQKKQREQAETN[Thp′]QILAQV-NH2 [SEQ ID NO 198]
> 250 nM

Record: IVLSLD[dV]PIKLK([γGlu-C16 diacid])QILLKQERQKKQREQAEKN[Aib]QILEQV-NH2 [SEQ ID NO 10]
> 250 nM

API: the following record is the query input.
// returns reported EC50 for input Ac-IVLSLD[dV]PIKLK([AEEA-γGlu-γGlu-C14 diacid])KILLEQEKQKKQREQAETN[Aib]QILAQV-NH2 [SEQ ID NO 174]
> 250 nM
